The reported measurements were obtained from patent US20200131669A1.

- Tested on: Caco-2 cells
- assay: Caco-2 membrane permeability, improved method as used in the following Examples (96-well, 20 to 24 h preincubation)
- Type: in vitro ADME
- condition.summary: human, Caco-2, 180 min
metric.name: Caco-2 (cm/s)
Give the quantity in cm/s, number only.

[
  {
    "molecule": "CC[C@H](C)[C@H]1C(=O)N[C@@H]([C@@H](C)O)C(=O)N(C)CC(=O)N(C)[C@@H](C)C(=O)N[C@H](C(=O)N2CCCCC2)CC(=O)N(C)[C@@H](C)C(=O)N[C@@H](C(C)C)C(=O)N(C)[C@@H](CC(C)C)C(=O)N(C)[C@@H](Cc2ccccc2)C(=O)NC(COc2cccc(Cl)c2)C(=O)N(C)[C@@H](Cc2ccccc2)C(=O)N1C (some centres unmarked)",
    "uom": "cm/s",
    "Caco-2": "1.8e-06"
  }
]

Now, please, on to the next molecule.
If you can, please state the reported Caco-2 value of CC(C)C[C@H]1C(=O)N[C@@H](COC(C)(C)C)C(=O)N(C)[C@@H](Cc2ccccc2)C(=O)N(C)[C@@H](C(C)C)C(=O)N[C@H](C(=O)N2CCCCC2)CC(=O)N[C@H](C)C(=O)N(C)[C@@H](Cc2ccccc2)C(=O)NC(COc2cccc(Cl)c2)C(=O)N(C)[C@@H](C(C)C)C(=O)N[C@@H]([C@@H](C)O)C(=O)N(C)CC(=O)N1C (some centres unmarked) . 2.2e-06
